Test system: Hep3B
Assay: relative cell viability (CellTiter-Glo), compound plus cabozantinib, relative to the cabozantinib arm (arm median 1.05; reference not stated) (fraction); higher = more viable cells (less growth inhibition)
Conditions: cabozantinib 2 µM; 4 days
Over roughly 1,900 compounds, “relative cell viability (CellTiter-Glo), compound plus cabozantinib, relative to the cabozantinib arm (arm median 1.05; reference not stated)” has its median near 1.1; the lowest 2% begin near 0.15. This is one part of a sample in which the lowest values are shown more often than they occur.
outcome.measure: relative cell viability

| compound | tgt | measured |
| --- | --- | --- |
| Cc1nc(Nc2n[nH]c3c2CN(C(=O)N[C@H](CN(C)C)c2ccccc2)C3(C)C)c2sccc2n1 | Hep3B | 0.149 |
| CNC(=O)c1ccccc1Nc1cc(Nc2ccc(N3CCOCC3)cc2OC)ncc1C(F)(F)F | Hep3B | 1.05 |
| C=C1C(=O)[C@]23[C@H](O)[C@H]1CC[C@H]2[C@@]12CO[C@]3(O)[C@@H](O)[C@@H]1C(C)(C)CC[C@@H]2O [Oridonin] | Hep3B | 1.11 |
| Nc1nc(N)c2nc(-c3cccc(O)c3)c(-c3cccc(O)c3)nc2n1 | Hep3B | 0.944 |
| O=C(/C=C\n1cnc(-c2cc(C(F)(F)F)cc(C(F)(F)F)c2)n1)N1CC(F)(F)C1 | Hep3B | 0.32 |
| C[C@H]1O[C@H](O[C@H]2[C@H](O)[C@@H](O)[C@@H](O[C@H]3[C@H](O)[C@@H](O)C(O)O[C@@H]3CO)O[C@@H]2CO)[C@H](O)[C@@H](O)[C@@H]1N[C@H]1C=C(CO)[C@@H](O)[C@H](O)[C@H]1O (stereo partly drawn) [Acarbose] | Hep3B | 1.21 |
| O=c1c2ccccc2oc2ccccc12 [Xanthone] | Hep3B | 1.08 |
| Clc1ccc(NN=C(c2ccccc2)c2ccccn2)nc1 | Hep3B | 0.087 |

* * *

Test system: Hep3B
Assay: relative cell viability (CellTiter-Glo), compound plus cabozantinib, relative to the cabozantinib arm (arm median 1.05; reference not stated) (fraction); higher = more viable cells (less growth inhibition)
Details: cabozantinib 2 µM; 4 days
The full ranking holds about 1,900 compounds; the median of “relative cell viability (CellTiter-Glo), compound plus cabozantinib, relative to the cabozantinib arm (arm median 1.05; reference not stated)” is about 1.1, and the lowest 2% start at about 0.15. For the sample, the lowest values were picked, then their nearest neighbours and some compounds at random.
// values below are reported relative cell viability

| smiles.notation | relative cell viability |
| --- | --- |
| CNC(=O)c1ccccc1Sc1ccc2c(/C=C/c3ccccn3)n[nH]c2c1 | 0.715 |
| C=CCn1c(=O)c2cnc(Nc3ccc(N4CCN(C)CC4)cc3)nc2n1-c1cccc(C(C)(C)O)n1 | 0.144 |
| Cc1cnc(Nc2ccc(N3CCN(C)CC3)cc2)nc1Nc1cccc(S(=O)(=O)NC(C)(C)C)c1 | 0.281 |
| O=C1c2c(O)ccc(O)c2C(=O)c2c(NCCNCCO)ccc(NCCNCCO)c21 | 0.0306 |
| O=C1c2cccc(O)c2C(=O)c2c(O)cc(CO)cc21 | 1.04 |

* * *

Test system: Hep3B
Experiment: relative cell viability (CellTiter-Glo), compound plus cabozantinib, relative to the cabozantinib arm (arm median 1.05; reference not stated) (fraction); higher = more viable cells (less growth inhibition)
Conditions: cabozantinib 2 µM; 4 days
In all, about 1,900 compounds were measured (“relative cell viability (CellTiter-Glo), compound plus cabozantinib, relative to the cabozantinib arm (arm median 1.05; reference not stated)”: median about 1.1, lowest 2% from about 0.15 on). The full list was thinned out, with the lowest values kept by preference.
// values below are reported relative cell viability
outcome.measure: relative cell viability

| molecule | outcome.measure | measured |
| --- | --- | --- |
| O=C(c1cncc(Br)c1)N1CCC(N2CCCC2)CC1 | relative cell viability | 1.16 |
| CN/C(=N\CCSCc1nc[nH]c1C)NC#N [Cimetidine] | relative cell viability | 0.986 |
| O=C(O)c1ccccc1 [Benzoic Acid] | relative cell viability | 1.12 |
| CCCCCCCCCCCC[N+](C)(C)CCOc1ccccc1 [Domiphen Bromide] | relative cell viability | 1.02 |
| COC(=O)N[C@H](C(=O)N1CC2(CC2)C[C@H]1c1nc(-c2ccc3c(c2)C(F)(F)c2cc(-c4ccc5[nH]c([C@@H]6[C@H]7CC[C@H](C7)N6C(=O)[C@@H](NC(=O)OC)C(C)C)nc5c4)ccc2-3)c[nH]1)C(C)C [Ledipasvir (GS5885)] | relative cell viability | 1 |

* * *

System: Hep3B
Assay: relative cell viability (CellTiter-Glo), compound plus cabozantinib, relative to the cabozantinib arm (arm median 1.05; reference not stated) (fraction); higher = more viable cells (less growth inhibition)
Conditions: cabozantinib 2 µM; 4 days
Counter-ions that a name gives are not always drawn. Over roughly 1,900 compounds, “relative cell viability (CellTiter-Glo), compound plus cabozantinib, relative to the cabozantinib arm (arm median 1.05; reference not stated)” has its median near 1.1; the lowest 2% begin near 0.15. The full list was thinned out, with the lowest values kept by preference.
// values below are reported relative cell viability

| molecule | relative cell viability |
| --- | --- |
| O=C1c2c(O)cc(O)cc2O[C@H](c2cc(O)c(O)c(O)c2)[C@H]1O [Dihydromyricetin] | 0.985 |
| C=CC(=O)Nc1cccc(Nc2nc(Nc3ccc(N4CCN(C(C)=O)CC4)cc3OC)ncc2C(F)(F)F)c1 | 0.831 |
| S=C(NCc1ccc2c(c1)OCO2)N1CCN(c2ncnc3c2oc2ccccc23)CC1 | 1.03 |
| CC[C@H]1[C@@H](O)[C@@H]2[C@H](CC[C@]3(C)[C@@H]([C@H](C)CCC(=O)O)CC[C@@H]23)[C@@]2(C)CC[C@@H](O)C[C@@H]12 | 1.12 |
| CCOc1cc(C(=O)N2CCC(N3CCN(C)CC3)CC2)ccc1Nc1ncc2c(n1)N(C1CCCC1)c1ccccc1C(=O)N2C | 0.703 |
| CC(C(O)c1ccc(O)cc1)N1CCC(Cc2ccccc2)CC1 (stereo not drawn) [Ifenprodil Tartrate] | 1.13 |
| C=CCc1cc(OC)c(O)c(C(=O)NCCO)c1 [Alibendol] | 0.982 |
| Cc1coc2c1C(=O)C(=O)c1c-2ccc2c1CCCC2(C)C | 0.985 |

* * *

Test system: Hep3B
Experiment: relative cell viability (CellTiter-Glo), compound plus cabozantinib, relative to the cabozantinib arm (arm median 1.05; reference not stated) (fraction); higher = more viable cells (less growth inhibition)
Details: cabozantinib 2 µM; 4 days
Counter-ions that a name gives are not always drawn. Whole data set: some 1,900 compounds, median “relative cell viability (CellTiter-Glo), compound plus cabozantinib, relative to the cabozantinib arm (arm median 1.05; reference not stated)” near 1.1, cut for the lowest 2% near 0.15. This excerpt belongs to a sample that is enriched for the lowest values.
outcome.measure: relative cell viability

| molecule | outcome.measure | measured |
| --- | --- | --- |
| O=C1NC(=O)[C@@H](c2cn3c4c(cccc24)CCC3)[C@@H]1c1c[nH]c2ccccc12 [Tivantinib (ARQ 197)] | relative cell viability | 0.835 |
| OC[C@H]1O[C@H](O[C@]2(CCl)O[C@H](CCl)[C@@H](O)[C@@H]2O)[C@H](O)[C@@H](O)[C@H]1Cl [Sucralose] | relative cell viability | 1.05 |
| Cc1c(-c2ccc(O)cc2)n(Cc2ccc(OCCN3CCCCCC3)cc2)c2ccc(O)cc12 [Bazedoxifene HCl] | relative cell viability | 0.867 |
| CCc1cc(Nc2nccc(-c3c(-c4ccc(OC)c(C(=O)Nc5c(F)cccc5F)c4)nc4ccccn34)n2)c(OC)cc1N1CCC(N2CCN(S(C)(=O)=O)CC2)CC1 | relative cell viability | 1.32 |
| C[C@H](NCc1ccc(OCc2cccc(F)c2)cc1)C(N)=O [Safinamide Mesylate] | relative cell viability | 1.22 |
| CCOC(=O)C1=C(N)Oc2ccc(Br)cc2C1C(C#N)C(=O)OCC (configuration not stated) | relative cell viability | 1.02 |
| CC(C)[C@H]1CC[C@H](C(=O)N[C@H](Cc2ccccc2)C(=O)O)CC1 [Nateglinide] | relative cell viability | 1.13 |
| O=C(c1cccc(Cl)c1F)N1CCN(Cc2cccc(Nc3nccs3)n2)CC1 | relative cell viability | 1.06 |
| Oc1ncnc2[nH]ncc12 [Allopurinol] | relative cell viability | 0.992 |
| Cn1cc(/C=C2\C(=O)Nc3cccnc32)c2ccccc21 | relative cell viability | 1 |
| CN1CCN2c3ncccc3Cc3ccccc3C2C1 (configuration not stated) [Mirtazapine] | relative cell viability | 1.01 |
| CC1(C)CC[C@]2(C(=O)O)CC[C@]3(C)C(=CC[C@@H]4[C@@]5(C)CC[C@H](O)C(C)(C)[C@@H]5CC[C@]43C)[C@@H]2C1 [Oleanolic Acid] | relative cell viability | 1.14 |
| CC(C)(C)c1nc(-c2cccc(NS(=O)(=O)c3c(F)cccc3F)c2F)c(-c2ccnc(N)n2)s1 | relative cell viability | 0.993 |
| CC1=CC(=O)c2ccccc2C1=O [Menadione] | relative cell viability | 1.05 |
| C[C@H](CCC(=O)O)[C@H]1CC[C@H]2[C@@H]3C[C@H](O)[C@@H]4C[C@H](O)CC[C@]4(C)[C@H]3CC[C@]12C [Hyodeoxycholic acid (HDCA)] | relative cell viability | 1.11 |
| CC(C)(C)C(=O)Nc1ccc2c(c1)C(=O)C(=O)c1ccccc1-2 | relative cell viability | 0.0959 |
| COc1cccc2c1c(O)c(C(=O)N(C)c1ccc(C(F)(F)F)cc1)c(=O)n2C [Tasquinimod] | relative cell viability | 1.19 |
